Some sequences, each annotated with its measured phosphorylation enrichment.
# Test system: Fer (mouse)
# Procedure Details: phosphorylation enrichment, bacterial display (enrichment ratio); higher = better substrate or ligand; peptides without Tyr show the background
Recorded Metric: phosphorylation enrichment

>>> observed("SPFAVYRFFTF [RPGRIP1_Y826_YF]")
0.496
>>> observed("SYSGEYGGGGG [ZG16_Y30]")
0.444
>>> observed("KPEKTYGLRNE [CEP43_Y267_K271N]")
0.321
>>> observed("KPLMPSMRYSR [SMARCE1_Y73_Y73S]")
0.377
>>> observed("REENGYNTYAS [FGF10_Y161_I156R]")
0.559
>>> observed("HTVVSYAKVRA [CLOCK_Y378_E380K]")
0.673
>>> observed("DKVFTYIFIME [SCN4A_Y1074]")
0.658

----------
# Assay System: Hck (UniProt P08631)
# Sequence (P08631 whole entry, looked up): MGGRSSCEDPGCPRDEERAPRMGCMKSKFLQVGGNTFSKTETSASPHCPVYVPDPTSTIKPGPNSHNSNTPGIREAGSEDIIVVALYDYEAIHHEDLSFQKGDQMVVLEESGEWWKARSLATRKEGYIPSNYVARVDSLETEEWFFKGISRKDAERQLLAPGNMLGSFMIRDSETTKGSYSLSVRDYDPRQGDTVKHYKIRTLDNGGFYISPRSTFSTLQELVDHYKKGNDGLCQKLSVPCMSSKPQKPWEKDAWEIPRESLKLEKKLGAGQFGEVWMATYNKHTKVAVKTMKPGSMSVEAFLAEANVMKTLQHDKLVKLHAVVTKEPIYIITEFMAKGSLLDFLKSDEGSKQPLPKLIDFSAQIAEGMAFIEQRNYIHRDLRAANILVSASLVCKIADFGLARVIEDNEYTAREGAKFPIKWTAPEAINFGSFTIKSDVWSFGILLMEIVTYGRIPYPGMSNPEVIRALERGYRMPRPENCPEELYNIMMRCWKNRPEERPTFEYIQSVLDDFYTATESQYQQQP
# Procedure Details: phosphorylation enrichment, bacterial display (enrichment ratio); higher = better substrate or ligand; peptides without Tyr show the background
Recorded Metric: phosphorylation enrichment

>>> observed("AEFGLYGAMVR [VSX2_Y222_YF]")
6.05
>>> observed("HYGNNYRDVLQ [MACC1_Y803]")
0.694
>>> observed("HCHEGYVLHGA [SVEP1_Y2921_I2922V]")
0.786
>>> observed("LARHMYDKEFF [MET_Y1230_D1228H_YF]")
0.399
>>> observed("SPFAVYRFFTF [RPGRIP1_Y826_YF]")
0.867
>>> observed("KLQKFYRQNPD [EHHADH_Y683_YF]")
0.443
>>> observed("MHRRQYELLGG [GNAS_Y391_L388R]")
0.409
>>> observed("IQKKYYRAILE [CHD7_Y1218]")
0.432
>>> observed("PINEPYGDDMD [JUP_Y693]")
0.981
>>> observed("KRGVSYILKLA [SERPINB1_Y84_A82V]")
0.558
>>> observed("EQPNPYMVLDI [ROCK2_Y1197_S1194P]")
1.23
>>> observed("MENFIYESMRF [CYP19A1_Y361_YF]")
7.67
>>> observed("LYSNAYLSDLA [ALDH1A1_Y119_N121S]")
3.5
>>> observed("GGQEDYDRLRP [RAC3_Y64_A59G]")
0.759
>>> observed("HNLDYYKMTTN [FGFR3_Y648_K650M]")
0.607
>>> observed("LGSNGCKKLLK [SEPSECS_Y334_Y334C]")
0.768
>>> observed("RHFTTYDTNGR [CLCA1_Y665_Y661H]")
0.835
>>> observed("VLSIDYFFPPQ [AR_Y552_P549S_YF]")
0.572
>>> observed("ATPKGYETDAS [OTC_Y223_P225T]")
0.438
>>> observed("PGPQSYPTVTG [PAX5_Y299_I301T]")
0.582
>>> observed("DGMADYSDPSY [CDC5L_Y459]")
0.487
>>> observed("ADQLDYIKALN [HPRT1_Y81_L78Q]")
0.526
>>> observed("LVKDPYVMFPQ [PLEKHG2_Y489_P484L]")
2.48
>>> observed("IINENYDYLKV [NUP98_Y1664_G1669V]")
1.89
>>> observed("RNDRVYQPLRD [CD3D_Y149_Q147R]")
5.18
>>> observed("GDEAIYATVAG [NRTKtide_2018]")
9.26
>>> observed("WFISFYPQVIM [CTNS_Y143_S139F]")
0.446
>>> observed("DLSEVYKPCRK [CCDC93_Y176_R179C]")
0.506
>>> observed("WHYTFYNELRV [ACTC1_Y93_H90Y]")
0.67
>>> observed("APNEFYDGDHD [HDAC3_Y414]")
0.769
>>> observed("PDGVEYLKNNP [GRIN3A_Y831_D835N]")
0.664
>>> observed("ANLAKYGNPNE [BCHE_Y505_F502L]")
0.403
>>> observed("IGEGTYGQVYK [CDK13_Y716]")
11.8
>>> observed("TWSSSYRSDRL [CRYBB1_Y131]")
0.419
>>> observed("SGPRRYTMAAL [TTR_Y125_I127M]")
0.488
>>> observed("AEVIWYKGDEV")
0.602
>>> observed("TTPGPYRSIYF [MPG_Y71]")
0.662
>>> observed("PIFEGYALPHA [ACTA1_Y171_YF]")
0.541
>>> observed("DTYDPYLDVAL [USP36_Y268]")
0.846
>>> observed("RYVSRYIYNRE [HLA-DQB1_Y62_T60S]")
0.551
>>> observed("RRIEKYVDQGK [IRAK3_Y61_H57R]")
0.445
>>> observed("KNGSNYVVKGN [KIT_Y823_D820G]")
0.45
>>> observed("AALRLYHVSDS [VIL1_Y256_K254R]")
0.485
>>> observed("DNLSNYVFQGQ [GRIN2A_Y978_N976S]")
0.41
>>> observed("ANQDDYISFRH [IMP4_Y226]")
1.19
>>> observed("CTTIHYIYMCN [TP53_Y234_N235I]")
0.322
>>> observed("RLLCEYQELMN [KRT75_Y434_R432C]")
0.761
>>> observed("LARHMYDKEYY [MET_Y1230_D1228H]")
0.825
>>> observed("VVQGIYGYHHH [UFSP2_Y285_Y290H]")
10.7
>>> observed("FGSGNYNVFGN [HNRNPA2B1_Y300_D302V_YF]")
0.423
>>> observed("VVEFGYEFFAK [PPP1CB_Y254_D252Y_YF]")
0.559
>>> observed("GVRYIYTIDGS [DCX_Y105]")
0.783
>>> observed("HLRAGYIIPLQ [GAA_Y822]")
0.268
>>> observed("PVRIAYDRPRG [SUGP2_Y985]")
0.426
>>> observed("DLAGRYFALKS [CKB_Y173_YF]")
0.453
>>> observed("EPYELYCEMGS [CBL_Y371_Q367P]")
4.22
>>> observed("AVHPGYGFLSE [PCCA_Y143]")
0.666

----------
# System: Fer (mouse)
# Procedure Details: phosphorylation enrichment, bacterial display (enrichment ratio); higher = better substrate or ligand; peptides without Tyr show the background
Recorded Metric: phosphorylation enrichment

>>> observed("DNEALYDTCFR [TUBB2B_Y208_I210T]")
8.38
>>> observed("RSFLSYFTSHV [NEFL_Y442_P440L_YF]")
0.677
>>> observed("ATPKGYETDAS [OTC_Y223_P225T]")
0.416
>>> observed("QGLRLYRPHLA [BTK_Y617]")
0.542
>>> observed("KELAPYDENRF [RPS19_Y48_W52R]")
0.579
>>> observed("PLLEYYRDIFT [CDAN1_Y713]")
1.02
>>> observed("TLDTDYQMTKR [ADA_Y308]")
0.697

----------
# Assay System: c-Src SH2;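 also: peptide library displayed on the E. coli surface as eCPX fusions, selected cells deep-sequenced, score is each peptide's frequency after selection divided by its frequency in the input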
# Procedure Details: SH2 binding enrichment of the phosphorylated peptide, bacterial display (enrichment ratio); higher = better substrate or ligand; peptides without Tyr show the background
Recorded Metric: SH2 binding enrichment

>>> observed("GCCSWYRGWAP [TIMP3_Y195_Y191C]")
1.24
>>> observed("PINEPYGDDMD [JUP_Y693]")
0.601
>>> observed("LCRYGYANTSE [SI_Y1233]")
2.24
>>> observed("QGCSIYKDYYR [PLA2G2D_Y82]")
0.738
>>> observed("LTYHMYADPNI [SOS1_Y618_F623I]")
8.46
>>> observed("SNSAAYSGSVA [PDLIM5_Y382_T381A]")
0.481
>>> observed("ISSLRYELLEE [TRPC6_Y896]")
6.86

----------
# Assay System: EPHB1 (UniProt P54762)
# Sequence (P54762 whole entry, looked up): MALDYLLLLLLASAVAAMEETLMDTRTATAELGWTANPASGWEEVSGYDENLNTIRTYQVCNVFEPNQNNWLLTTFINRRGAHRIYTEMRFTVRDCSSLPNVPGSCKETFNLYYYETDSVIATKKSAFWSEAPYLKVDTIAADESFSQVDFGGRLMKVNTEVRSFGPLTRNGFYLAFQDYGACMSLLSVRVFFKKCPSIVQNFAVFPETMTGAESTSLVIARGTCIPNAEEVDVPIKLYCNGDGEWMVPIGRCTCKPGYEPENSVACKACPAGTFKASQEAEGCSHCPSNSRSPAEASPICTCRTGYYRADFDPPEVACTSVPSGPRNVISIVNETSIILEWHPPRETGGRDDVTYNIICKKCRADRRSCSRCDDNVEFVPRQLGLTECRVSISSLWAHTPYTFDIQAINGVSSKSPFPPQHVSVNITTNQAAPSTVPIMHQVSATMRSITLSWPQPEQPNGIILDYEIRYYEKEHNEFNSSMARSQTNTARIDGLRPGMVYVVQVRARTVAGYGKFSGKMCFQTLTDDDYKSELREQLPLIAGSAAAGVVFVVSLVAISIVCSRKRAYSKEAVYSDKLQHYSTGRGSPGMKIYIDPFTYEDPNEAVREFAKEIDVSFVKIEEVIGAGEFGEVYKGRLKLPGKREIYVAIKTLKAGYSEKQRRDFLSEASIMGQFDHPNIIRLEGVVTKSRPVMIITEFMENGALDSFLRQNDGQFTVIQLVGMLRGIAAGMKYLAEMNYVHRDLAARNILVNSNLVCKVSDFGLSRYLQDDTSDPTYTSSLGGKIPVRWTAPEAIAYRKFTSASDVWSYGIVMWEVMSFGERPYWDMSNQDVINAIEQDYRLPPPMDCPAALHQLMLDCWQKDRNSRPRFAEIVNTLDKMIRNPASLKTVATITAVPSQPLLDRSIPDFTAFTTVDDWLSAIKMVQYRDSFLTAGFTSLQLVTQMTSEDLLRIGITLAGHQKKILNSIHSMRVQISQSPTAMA
# Procedure Details: phosphorylation enrichment, bacterial display (enrichment ratio); higher = better substrate or ligand; peptides without Tyr show the background
# phosphorylation enrichment >= 0.5 gives MET, anything below gives NOT MET

>>> assigned_category("ELSDGYWVVSN [TPP1_Y459_A454E]")
"MET"
>>> assigned_category("TFYQMYDKGLV [IARS2_Y231]")
"MET"
>>> assigned_category("ASPALYRLDLD [TRIL_Y352]")
"MET"
>>> assigned_category("NVKGIYAVGDV [GSR_Y371]")
"MET"
>>> assigned_category("YLQEIHNSNNQ [FGG_Y140_Y140H]")
"NOT MET"
>>> assigned_category("LLREWYMIISR [HUWE1_Y4066]")
"MET"
>>> assigned_category("IITVHYVLEES [RYR2_Y4559_A4556T]")
"MET"
>>> assigned_category("PFTRNYFVRAV [CYBA_Y87_YF]")
"NOT MET"
>>> assigned_category("GRTNIYNNKKD [SLC26A3_Y520_K521N]")
"NOT MET"
>>> assigned_category("AEQDWYHGAIP [FER_Y461]")
"NOT MET"
>>> assigned_category("IGGHAYGDQFR [IDH1_Y135_R132G_YF]")
"NOT MET"
>>> assigned_category("FSDPDYLAAVD [GLB1_Y154_S149F]")
"MET"
>>> assigned_category("GPRSLYNGLVA [UCP2_Y79]")
"NOT MET"
>>> assigned_category("EVTQDYGLDPK [FH_Y110_N107T]")
"MET"
>>> assigned_category("CGTPDYIAPEI [PRKCG_Y521]")
"MET"
>>> assigned_category("EIPTQYEAMAS [GFAP_Y242_R239P]")
"MET"
>>> assigned_category("QADVIYVNTQL [MERTK_Y872]")
"MET"
>>> assigned_category("MVTSGYKAKTI [EFR3A_Y447]")
"NOT MET"
>>> assigned_category("KPLMPCMRFSR [SMARCE1_Y73_Y73C_YF]")
"NOT MET"
>>> assigned_category("GDEAIYATVAG [NRTKtide_2018]")
"MET"
>>> assigned_category("DESEDYRDTVV [CNNM3_Y456]")
"MET"
>>> assigned_category("QRALLYEDTLY [UNC13D_Y56_A59T]")
"MET"
>>> assigned_category("EIRTQYEVMAS [GFAP_Y242_A244V]")
"NOT MET"
>>> assigned_category("CTTIRYNFMCN [TP53_Y234_H233R_YF]")
"MET"
>>> assigned_category("EQPNPYMVLDI [ROCK2_Y1197_S1194P]")
"MET"
>>> assigned_category("GCVSKYSGVFS [TUBGCP6_Y1624]")
"NOT MET"
>>> assigned_category("DFPGIYSGYDD [POLR1C_Y33_N32I]")
"MET"
>>> assigned_category("YGPPQYNMQYS [ERBB2IP_Y977_I979M]")
"NOT MET"

Reference source for all entries: the supplement of paper PMC10065799
